List of half-life values.
# test-details: Half-life in rat was determined
# Type: ADME
# particulars: in vivo
attribute-measured: half-life (min)

mol=COc1cccc(C(=O)N2CCCC2)c1OCc1csc(-c2ccc(Cl)cc2)n1 attribute_measured=half-life assay_result=28.8
mol=O=C(c1ccccc1OCc1csc(-c2ccc(Cl)cc2)n1)N1CCCC1 attribute_measured=half-life assay_result=26.4

====

List of IC50 values.
# measured-target: Sodium channel protein type 9 subunit alpha (Homo sapiens, UniProt Q15858)
# Sequence (Q15858 whole entry): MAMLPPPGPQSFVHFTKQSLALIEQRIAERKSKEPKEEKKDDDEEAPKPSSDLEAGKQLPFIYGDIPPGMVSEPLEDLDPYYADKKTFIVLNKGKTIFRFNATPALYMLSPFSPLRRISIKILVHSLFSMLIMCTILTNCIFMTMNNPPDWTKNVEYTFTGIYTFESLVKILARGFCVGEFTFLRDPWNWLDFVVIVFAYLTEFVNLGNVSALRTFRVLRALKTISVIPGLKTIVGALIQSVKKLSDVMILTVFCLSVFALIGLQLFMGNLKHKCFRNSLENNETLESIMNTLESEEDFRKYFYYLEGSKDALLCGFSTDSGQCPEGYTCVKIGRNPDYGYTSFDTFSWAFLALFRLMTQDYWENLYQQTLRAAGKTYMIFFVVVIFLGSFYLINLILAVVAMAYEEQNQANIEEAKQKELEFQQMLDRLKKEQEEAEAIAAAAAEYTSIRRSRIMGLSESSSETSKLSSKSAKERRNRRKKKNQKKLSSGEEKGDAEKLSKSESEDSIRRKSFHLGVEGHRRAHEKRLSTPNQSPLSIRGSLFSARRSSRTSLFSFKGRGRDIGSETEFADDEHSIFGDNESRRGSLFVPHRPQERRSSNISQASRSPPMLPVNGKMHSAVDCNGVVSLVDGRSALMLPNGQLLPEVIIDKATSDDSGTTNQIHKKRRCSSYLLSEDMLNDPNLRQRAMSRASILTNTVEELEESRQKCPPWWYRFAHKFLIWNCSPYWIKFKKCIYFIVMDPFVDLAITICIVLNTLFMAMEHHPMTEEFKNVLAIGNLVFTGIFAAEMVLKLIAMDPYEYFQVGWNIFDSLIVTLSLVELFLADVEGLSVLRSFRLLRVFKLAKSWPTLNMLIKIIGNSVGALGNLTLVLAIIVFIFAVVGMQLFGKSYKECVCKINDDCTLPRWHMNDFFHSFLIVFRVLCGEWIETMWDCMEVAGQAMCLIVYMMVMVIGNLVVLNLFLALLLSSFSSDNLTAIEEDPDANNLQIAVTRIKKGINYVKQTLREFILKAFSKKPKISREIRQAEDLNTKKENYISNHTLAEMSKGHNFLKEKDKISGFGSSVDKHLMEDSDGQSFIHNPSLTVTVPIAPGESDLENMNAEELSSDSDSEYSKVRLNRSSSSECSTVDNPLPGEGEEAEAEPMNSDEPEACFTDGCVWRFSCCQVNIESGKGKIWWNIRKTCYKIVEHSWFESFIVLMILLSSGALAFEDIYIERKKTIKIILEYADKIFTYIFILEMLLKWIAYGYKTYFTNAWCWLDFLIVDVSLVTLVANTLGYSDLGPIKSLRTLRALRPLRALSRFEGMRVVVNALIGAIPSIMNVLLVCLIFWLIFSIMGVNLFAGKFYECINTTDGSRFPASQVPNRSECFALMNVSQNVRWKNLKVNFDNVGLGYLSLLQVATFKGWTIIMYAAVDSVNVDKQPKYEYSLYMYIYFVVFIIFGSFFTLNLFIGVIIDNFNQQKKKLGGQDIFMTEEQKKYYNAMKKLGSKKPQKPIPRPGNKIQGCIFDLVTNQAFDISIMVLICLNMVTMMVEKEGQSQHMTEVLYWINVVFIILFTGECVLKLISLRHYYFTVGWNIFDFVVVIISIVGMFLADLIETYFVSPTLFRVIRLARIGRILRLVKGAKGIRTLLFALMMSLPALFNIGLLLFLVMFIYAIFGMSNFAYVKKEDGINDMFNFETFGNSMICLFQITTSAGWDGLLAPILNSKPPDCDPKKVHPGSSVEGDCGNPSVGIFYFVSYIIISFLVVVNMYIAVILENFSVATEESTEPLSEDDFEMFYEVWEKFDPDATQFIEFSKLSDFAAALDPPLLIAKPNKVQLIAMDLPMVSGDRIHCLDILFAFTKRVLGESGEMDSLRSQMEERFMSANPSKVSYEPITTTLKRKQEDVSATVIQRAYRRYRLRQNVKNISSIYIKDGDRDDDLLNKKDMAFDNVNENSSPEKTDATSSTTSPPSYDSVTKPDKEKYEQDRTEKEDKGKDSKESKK
# test-details: In vitro inhibitory concentration against Na v1.7 channel expressed in HEK293 cells using Voltage/Ion Probe Reader (VIPR) assay
# Type: cell-based
attribute-measured: IC50 (µM)

mol=O=C(c1ccccc1OCc1csc(-c2ccc(Cl)cc2)n1)N1CCCC1 measured_target="Sodium channel protein type 9 subunit alpha (Homo sapiens, UniProt Q15858)" assay_result=1
mol=COc1cccc(C(=O)N2CCCC2)c1OCCCc1ccccc1 measured_target="Sodium channel protein type 9 subunit alpha (Homo sapiens, UniProt Q15858)" assay_result=21
mol=COc1cccc(C(=O)N2CCCCC2)c1OCc1csc(-c2ccc(Cl)cc2)n1 measured_target="Sodium channel protein type 9 subunit alpha (Homo sapiens, UniProt Q15858)" assay_result=3.7
mol=Cc1cccc(C(=O)N2CCCC2)c1OCc1csc(-c2ccc(Cl)cc2)n1 measured_target="Sodium channel protein type 9 subunit alpha (Homo sapiens, UniProt Q15858)" assay_result=0.55
mol=Clc1ccc(-c2nc(COc3ccccc3CN3CCCCCCC3)cs2)cc1 measured_target="Sodium channel protein type 9 subunit alpha (Homo sapiens, UniProt Q15858)" assay_result=2.9
mol=O=C(c1cccc(Cl)c1OCc1csc(-c2ccc(Cl)cc2)n1)N1CCCC1 measured_target="Sodium channel protein type 9 subunit alpha (Homo sapiens, UniProt Q15858)" assay_result=0.73
mol=O=C(c1ccccc1OCc1csc(-c2ccc(Cl)cc2)n1)N1CCCCC1 measured_target="Sodium channel protein type 9 subunit alpha (Homo sapiens, UniProt Q15858)" assay_result=7.4
mol=O=C(c1ccccc1OCc1csc(-c2ccc(Cl)cc2)n1)N1CCCCCCC1 measured_target="Sodium channel protein type 9 subunit alpha (Homo sapiens, UniProt Q15858)" assay_result=29
mol=COc1cccc(C(=O)N2CCCCCCC2)c1OCc1csc(-c2ccc(Cl)cc2)n1 measured_target="Sodium channel protein type 9 subunit alpha (Homo sapiens, UniProt Q15858)" assay_result=19.4
mol=COc1cccc(CN2CCCCCCC2)c1OCc1csc(-c2ccccc2)n1 measured_target="Sodium channel protein type 9 subunit alpha (Homo sapiens, UniProt Q15858)" assay_result=4

====

# measured-target: Sodium channel protein type 9 subunit alpha (Homo sapiens, UniProt Q15858)
# test-details: In vivo inhibitory concentration against Na v1.7 channel expressed in HEK293 cells using Voltage/Ion Probe Reader (VIPR) assay
# Assay type: organism-based
attribute-measured: IC50 (µM)

mol=O=C(c1ccccc1OCc1csc(-c2ccc(Cl)cc2)n1)N1CCCC1 assay_result=1

====

# test-details: Bioavailability in rat
# Assay type: ADME, organism-based
# particulars: in vivo
attribute-measured: bioavailability (%)

mol=COc1cccc(C(=O)N2CCCC2)c1OCc1csc(-c2ccc(Cl)cc2)n1 assay_result=9.4
mol=O=C(c1ccccc1OCc1csc(-c2ccc(Cl)cc2)n1)N1CCCC1 assay_result=17

====

# measured-target: Voltage-gated inwardly rectifying potassium channel KCNH2 (Homo sapiens)
# Sequence (Q12809 whole entry): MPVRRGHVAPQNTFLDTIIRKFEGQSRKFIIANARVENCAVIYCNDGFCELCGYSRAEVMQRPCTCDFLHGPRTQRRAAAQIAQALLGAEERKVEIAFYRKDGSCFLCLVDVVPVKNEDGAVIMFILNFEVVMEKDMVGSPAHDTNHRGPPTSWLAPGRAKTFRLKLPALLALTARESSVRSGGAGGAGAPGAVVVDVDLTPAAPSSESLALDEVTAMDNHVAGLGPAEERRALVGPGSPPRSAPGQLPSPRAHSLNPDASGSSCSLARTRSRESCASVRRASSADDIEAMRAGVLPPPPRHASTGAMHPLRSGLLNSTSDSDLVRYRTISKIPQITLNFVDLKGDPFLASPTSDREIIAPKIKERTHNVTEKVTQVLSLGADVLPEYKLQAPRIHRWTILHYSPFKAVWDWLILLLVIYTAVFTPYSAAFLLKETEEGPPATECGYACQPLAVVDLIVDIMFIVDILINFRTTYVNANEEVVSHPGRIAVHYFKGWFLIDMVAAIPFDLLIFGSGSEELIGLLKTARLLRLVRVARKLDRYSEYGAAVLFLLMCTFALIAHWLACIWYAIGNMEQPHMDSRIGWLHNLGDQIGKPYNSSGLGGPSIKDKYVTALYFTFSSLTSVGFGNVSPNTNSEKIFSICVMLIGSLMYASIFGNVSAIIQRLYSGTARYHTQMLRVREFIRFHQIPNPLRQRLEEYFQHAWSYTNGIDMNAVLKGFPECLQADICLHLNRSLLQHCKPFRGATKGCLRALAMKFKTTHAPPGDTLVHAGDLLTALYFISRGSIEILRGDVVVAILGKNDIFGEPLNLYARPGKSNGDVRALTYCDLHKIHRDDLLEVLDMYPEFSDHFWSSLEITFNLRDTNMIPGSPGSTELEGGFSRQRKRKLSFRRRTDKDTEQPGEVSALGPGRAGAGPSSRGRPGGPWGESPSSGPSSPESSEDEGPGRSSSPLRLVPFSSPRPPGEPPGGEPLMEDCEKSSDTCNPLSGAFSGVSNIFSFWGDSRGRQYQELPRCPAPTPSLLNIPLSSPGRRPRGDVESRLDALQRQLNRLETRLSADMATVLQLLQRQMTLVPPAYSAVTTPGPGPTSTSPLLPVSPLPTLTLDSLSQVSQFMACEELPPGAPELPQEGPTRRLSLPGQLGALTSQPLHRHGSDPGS
# test-details: In vivo inhibitory concentration against displacement of 35[S] MK-499 binding to hERG channel expressed in HEK293 cells
# Assay type: organism-based
attribute-measured: IC50 (µM)

mol=O=C(c1ccccc1OCc1csc(-c2ccc(Cl)cc2)n1)N1CCCC1 measured_target="Voltage-gated inwardly rectifying potassium channel KCNH2 (Homo sapiens)" assay_result=9.8

Values compiled from ChEMBL document CHEMBL1140272.
